tested on: IGROV-1; assay: NCI tumour cell line growth inhibition, 48 h
The source made the active and inactive calls. Rule as the data show it: active = GI50 up to about 1.1 µM and inactive = higher.
Measured GI50, listed per entry for reference.

N#CC1CCCCOCCOCCOCCOCCOCCCCCC1=O (configuration not stated) :: > 100 µM (inactive)

Which GI50 value is on record for `C/C(Cl)=N\OC(=O)Nc1ccccc1C(F)(F)F` ? > 100 µM (inactive)

Also C=C(Br)C(C)(Cl)CCC(Br)C(C)(C)Cl (configuration not stated) ? 77.3 µM (inactive)

Try the compound `CCCCSC1=N/C(=C\c2ccc(N(C)C)cc2)C(NN)=N1` > 100 µM (inactive)

Same again, this time with `Cc1nc(Nc2ccc(F)cc2)c2sc(=S)n(-c3ccc(F)cc3)c2n1` 10.6 µM (inactive)

Input O=C(CCN1CCN2c3ccccc3CCC2C1)c1ccc(F)cc1 (configuration not stated) 22.4 µM (inactive)

Next up: COC(=O)C1C2C=CC(C2)C1(C(=O)OC)[S+]([O-])CC12CCC(CC1O)C2(C)C (configuration not stated) > 100 µM (inactive)

Here is the next compound: CC(NC1=NCCO1)c1ccco1 (configuration not stated) > 100 µM (inactive)

Please give the result for `O=C1/C(=c2\c3ccccc3n3c(=O)c4ccccc4nc23)Nc2ccccc21` too. > 100 µM (inactive)

src = ChEMBL document CHEMBL1201862
